IC50 tested on UniProtKB P05177: recorded values
Sequence (P05177 whole entry): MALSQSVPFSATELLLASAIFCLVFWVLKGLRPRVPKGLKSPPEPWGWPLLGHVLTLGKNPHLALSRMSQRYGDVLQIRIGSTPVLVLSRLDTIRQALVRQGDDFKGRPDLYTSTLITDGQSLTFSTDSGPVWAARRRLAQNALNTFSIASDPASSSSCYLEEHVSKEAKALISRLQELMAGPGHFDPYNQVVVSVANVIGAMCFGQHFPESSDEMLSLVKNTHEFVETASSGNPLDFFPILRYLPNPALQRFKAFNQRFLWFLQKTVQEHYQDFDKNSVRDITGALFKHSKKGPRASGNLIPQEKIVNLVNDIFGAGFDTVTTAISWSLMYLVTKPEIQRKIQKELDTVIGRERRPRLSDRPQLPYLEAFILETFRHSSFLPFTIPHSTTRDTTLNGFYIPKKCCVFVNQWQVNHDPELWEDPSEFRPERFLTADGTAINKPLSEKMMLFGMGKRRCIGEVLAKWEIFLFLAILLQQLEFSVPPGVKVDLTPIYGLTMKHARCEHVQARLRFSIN

- given smiles: "C#CCOc1cc(O)c2c(=O)cc(-c3ccccc3)oc2c1"
  value modifier: "="
  IC50 / nM: 89
- given smiles: "O=c1cc(-c2ccccc2)oc2ccc3c(c12)OCC=C3"
  value modifier: "="
  IC50 / nM: 1130
- given smiles: "C#CCOc1ccc(-c2cc(=O)c3c(O)cccc3o2)cc1"
  value modifier: ">"
  IC50 / nM: 20000
- given smiles: "C#CCOc1ccc(-c2cc(=O)c3c(ccc4ccccc43)o2)cc1"
  value modifier: "="
  IC50 / nM: 600
- given smiles: "O=c1cc(-c2ccccc2)oc2ccc3c(c12)C=CCO3"
  value modifier: "="
  IC50 / nM: 760

###

Target: Cytochrome P450 1A1 (Homo sapiens, UniProt P04798)
Sequence (P04798 whole entry): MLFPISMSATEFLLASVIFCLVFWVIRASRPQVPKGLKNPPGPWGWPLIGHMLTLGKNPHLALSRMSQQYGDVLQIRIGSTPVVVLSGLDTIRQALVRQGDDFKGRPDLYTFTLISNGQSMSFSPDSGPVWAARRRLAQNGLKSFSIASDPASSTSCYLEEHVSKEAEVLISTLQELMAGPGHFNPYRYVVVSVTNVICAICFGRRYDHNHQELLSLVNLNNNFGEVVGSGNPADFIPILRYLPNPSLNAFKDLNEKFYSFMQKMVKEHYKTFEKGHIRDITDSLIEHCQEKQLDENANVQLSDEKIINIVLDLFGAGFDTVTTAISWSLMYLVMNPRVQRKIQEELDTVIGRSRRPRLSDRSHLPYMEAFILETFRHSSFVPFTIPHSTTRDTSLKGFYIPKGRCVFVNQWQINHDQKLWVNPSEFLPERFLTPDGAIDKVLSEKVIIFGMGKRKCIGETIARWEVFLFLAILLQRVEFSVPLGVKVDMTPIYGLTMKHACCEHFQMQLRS
Assay: Irreversible inhibition of CYP1A1 (unknown origin)-mediated deethylation of resorufin ethyl ether after 5 mins by spectrofluorimetric analysis
pKi: −log10 of the molar value.

- given smiles: "C#CCOc1cccc(-c2cc(=O)c3c(O)cccc3o2)c1"
  study system: "Cytochrome P450 1A1 (Homo sapiens, UniProt P04798)"
  pKi: 6.89

###

target: CYP1A1 (Homo sapiens); assay: Irreversible inhibition of CYP1A1 (unknown origin)-mediated deethylation of resorufin ethyl ether after 5 mins by spectrofluorimetric analysis; type: ADME; settings: human, probe resorufin ethyl ether
measure: kinact at 5 min (s⁻¹)

- given smiles: "C#CCOc1cccc(-c2cc(=O)c3c(O)cccc3o2)c1"
  study system: "CYP1A1 (Homo sapiens)"
  reading unit: "s⁻¹"
  value: 0.00317

###

Target: Cytochrome P450 2B1 (Rattus norvegicus)
Sequence (P00176 whole entry): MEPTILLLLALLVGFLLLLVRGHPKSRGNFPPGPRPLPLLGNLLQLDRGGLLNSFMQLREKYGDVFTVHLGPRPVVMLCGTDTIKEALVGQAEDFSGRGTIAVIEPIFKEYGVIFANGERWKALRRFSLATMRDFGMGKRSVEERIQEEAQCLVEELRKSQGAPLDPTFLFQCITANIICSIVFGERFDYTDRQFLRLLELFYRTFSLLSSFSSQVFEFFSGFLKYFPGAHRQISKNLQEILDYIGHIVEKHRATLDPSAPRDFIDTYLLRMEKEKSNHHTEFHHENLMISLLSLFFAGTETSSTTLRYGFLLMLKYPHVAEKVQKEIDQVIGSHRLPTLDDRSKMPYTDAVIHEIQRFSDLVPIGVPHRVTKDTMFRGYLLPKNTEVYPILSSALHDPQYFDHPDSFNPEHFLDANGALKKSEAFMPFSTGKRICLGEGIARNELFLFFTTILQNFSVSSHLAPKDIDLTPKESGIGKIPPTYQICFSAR
pIC50: −log10 of the molar value.

- given smiles: "O=c1cc(-c2ccccc2)oc2ccc3c(c12)OCC=C3"
  pIC50: "< 4.60"
- given smiles: "O=c1cc(-c2ccccc2)oc2ccc3ccccc3c12"
  pIC50: "< 4.60"
- given smiles: "O=c1cc(-c2ccccc2)oc2c3c(cc(O)c12)OCC=C3"
  pIC50: "< 4.60"
- given smiles: "C#CCOc1cc(O)c2c(=O)cc(-c3ccccc3)oc2c1"
  pIC50: "< 4.60"
- given smiles: "O=c1cc(-c2ccc3c(c2)C=CCO3)oc2ccccc12"
  pIC50: 5.18
- given smiles: "C#CCOc1cccc(-c2cc(=O)c3c(O)cccc3o2)c1"
  pIC50: 5.39
